experiment: Dog pharmacokinetic study; type: in vivo, dogs; details: healthy dogs, N = 4 animals/arm, fasted overnight, pentagastrin 30 min prior to dosing; mean plasma profile
endpointName: Tmax (h)
Numbers only, in h.

{"sampleSmiles": "Cc1c(C(=O)O)sc2nc(Cc3ccc(Cl)c(Cl)c3)[nH]c(=O)c12.NCCCC[C@H](N)C(=O)O", "Tmax (h)": 3.50}

# batch: return Tmax for each of the 3 compounds below
1. Cc1c(C(=O)O)sc2nc(Cc3ccc(Cl)c(Cl)c3)[nH]c(=O)c12.N=C(N)NCCC[C@H](N)C(=O)O
2. [K+]
3. CNCC(O)C(O)C(O)C(O)CO.Cc1c(C(=O)O)sc2nc(Cc3ccc(Cl)c(Cl)c3)[nH]c(=O)c12.O

[out]
1: 1.38; 2: 1.25; 3: 1.13

###

assay: Hygroscopicity by Dynamic Vapor Sorption; assay type: physicochemical; conditions: Dynamic Vapor Sorption @ 25° C./95% RH
endpointName: Hygroscopicity: DVS weight gain (%)
One number for each entry, in %.

Examples from the recorded data:
{"sampleSmiles": "Cc1c(C(=O)O)sc2nc(Cc3ccc(Cl)c(Cl)c3)[nH]c(=O)c12.NCCCC[C@H](N)C(=O)O", "endpointName": "Hygroscopicity: DVS weight gain", "measuredNumber": 6.4}
{"sampleSmiles": "CNCC(O)C(O)C(O)C(O)CO.Cc1c(C(=O)O)sc2nc(Cc3ccc(Cl)c(Cl)c3)[nH]c(=O)c12.O", "endpointName": "Hygroscopicity: DVS weight gain", "measuredNumber": 0.7}

--- query ---
The compound "Cc1c(C(=O)O)sc2nc(Cc3ccc(Cl)c(Cl)c3)[nH]c(=O)c12.N=C(N)NCCC[C@H](N)C(=O)O" showed Hygroscopicity: DVS weight gain equal to 5.9

###

Task for the reader: assign each of the following compounds its reported Cmax.
test: Dog pharmacokinetic study; assay type: in vivo, dogs; settings: healthy dogs, N = 4 animals/arm, fasted overnight, pentagastrin 30 min prior to dosing; mean plasma profile
One number for each entry, in ng/mL.

{"sampleSmiles": "Cc1c(C(=O)O)sc2nc(Cc3ccc(Cl)c(Cl)c3)[nH]c(=O)c12.NCCCC[C@H](N)C(=O)O", "endpointName": "Cmax", "unitAbbrev": "ng/mL", "measuredNumber": 78.4}
{"sampleSmiles": "[K+]", "endpointName": "Cmax", "unitAbbrev": "ng/mL", "measuredNumber": 398}
{"sampleSmiles": "CNCC(O)C(O)C(O)C(O)CO.Cc1c(C(=O)O)sc2nc(Cc3ccc(Cl)c(Cl)c3)[nH]c(=O)c12.O", "endpointName": "Cmax", "unitAbbrev": "ng/mL", "measuredNumber": 280}

--- query ---
The compound "Cc1c(C(=O)O)sc2nc(Cc3ccc(Cl)c(Cl)c3)[nH]c(=O)c12.N=C(N)NCCC[C@H](N)C(=O)O" showed Cmax equal to 246

###

test: Solid form stability on drying under vacuum; assay type: physicochemical; conditions: crystalline salts; crystal form after drying
endpointName: Stability: Drying under vaccum @50 for 36 hrs

{"compound": "Cc1c(C(=O)O)sc2nc(Cc3ccc(Cl)c(Cl)c3)[nH]c(=O)c12.N=C(N)NCCC[C@H](N)C(=O)O [compound 8]", "result": "changes"}
{"compound": "[K+] [Potassium]", "result": "changes"}
{"compound": "Cc1c(C(=O)O)sc2nc(Cc3ccc(Cl)c(Cl)c3)[nH]c(=O)c12.NCCCC[C@H](N)C(=O)O [compound 9]", "result": "changes"}

###

assay: Dog pharmacokinetic study; type: in vivo, dogs; settings: healthy dogs, N = 4 animals/arm, fasted overnight, pentagastrin 30 min prior to dosing; mean plasma profile
endpointName: AUClast (ng·h/mL)
Answers are plain numbers, in ng·h/mL.

{"sampleSmiles": "[K+]", "unitAbbrev": "ng·h/mL", "AUClast": 966}
{"sampleSmiles": "Cc1c(C(=O)O)sc2nc(Cc3ccc(Cl)c(Cl)c3)[nH]c(=O)c12.N=C(N)NCCC[C@H](N)C(=O)O", "unitAbbrev": "ng·h/mL", "AUClast": 705}
{"sampleSmiles": "CNCC(O)C(O)C(O)C(O)CO.Cc1c(C(=O)O)sc2nc(Cc3ccc(Cl)c(Cl)c3)[nH]c(=O)c12.O", "unitAbbrev": "ng·h/mL", "AUClast": 1008}

--- query ---
The compound "Cc1c(C(=O)O)sc2nc(Cc3ccc(Cl)c(Cl)c3)[nH]c(=O)c12.NCCCC[C@H](N)C(=O)O" showed AUClast equal to 495
